test: chemical genetic growth profiling, strain panel (AID 1159580);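 also: tested at 20 µM; growth read once vehicle control cultures reached saturation at 30 °C; 1 = growth at the plate median or of vehicle wells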; settings: S. cerevisiae deletion strains, growth OD, locus YLR262C, strain YPT6 (second series), stronger effect = lower value
Out of some 5,500 compounds screened, about 2,000 (36%) were called active. Not shown: some 18% with an inconclusive outcome. The list shows a part of the results.
Task for the reader: assign each of the following compounds its reported normalized growth.

Problem: Please give the documented normalized growth of CC12CC3CC(C)(C1)CC(N)(C3)C2
Solution: 1 (inactive)

Problem: Please give the documented normalized growth of N#C/C(=C\c1cccc(O)c1)C(=O)O
Solution: 0.974 (inactive)

Problem: Please give the documented normalized growth of O=c1[nH]cnc2[nH]ncc12
Solution: 1 (inactive)

Problem: Please give the documented normalized growth of O=[N+]([O-])c1cccc2c(Br)[nH]nc12
Solution: 0.986 (inactive)

Problem: Please give the documented normalized growth of C[C@]12C=CC(=O)C=C1CCC1C3C[C@@H](O)[C@](O)(C(=O)CO)[C@@]3(C)C[C@H](O)[C@@]12F (stereo partly specified)
Solution: 0.996 (inactive)

Problem: Please give the documented normalized growth of O=[N+]([O-])c1cccc2cn[nH]c12
Solution: 1.01 (inactive)

---

Task for the reader: assign each of the following molecules its reported normalized growth.
experiment: chemical genetic growth profiling, strain panel (AID 1159580);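 also: tested at 20 µM; growth read once vehicle control cultures reached saturation at 30 °C; 1 = growth at the plate median or of vehicle wells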; settings: S. cerevisiae deletion strains, growth OD, locus YGR135W, strain pre9, stronger effect = lower value
Screen size: about 5,500 compounds; about 2,000 (36%) were called active. Another 18% or so got no clear call; they are omitted. The list shows a part of the results.
Give a plain numeric answer without units written out.

Problem: Please give the documented normalized growth of CC1CC2C3CC(F)C4=CC(=O)C=CC4(C)C3(F)C(O)CC2(C)C1C(=O)COC(=O)C(C)(C)C (stereo not drawn)
Solution: 0.957

Problem: Please give the documented normalized growth of Cc1cc(=O)oc2c(O)c(O)ccc12
Solution: 0.988

Problem: Please give the documented normalized growth of c1ccc2c(c1)CN1CCCC1=N2
Solution: 0.998

Problem: Please give the documented normalized growth of O=C(Nc1ccccc1)c1ccccc1O
Solution: 0.944

Problem: Please give the documented normalized growth of CC(=O)N=c1sc(S(N)(=O)=O)nn1C
Solution: 1.06

Problem: Please give the documented normalized growth of C=C1C2=CC(=O)O[C@@H](c3ccoc3)[C@]2(C)CCC1[C@@]1(C)C=CC(=O)C(C)(C)[C@@H]1CC(=O)OC (stereo partly drawn)
Solution: 1.01

Problem: Please give the documented normalized growth of O=c1cc(-c2ccccc2)oc2cc(O)c(O)c(O)c12
Solution: 0.443

Problem: Please give the documented normalized growth of CC(=O)O[C@H]1C[C@@H](OC(C)=O)C(C)(C)C2CC(=O)[C@]3(C)C(CC[C@@]4(C)[C@H](c5ccoc5)OC(=O)[C@H]5O[C@]543)[C@]21C (stereo partly drawn)
Solution: 1.06

Problem: Please give the documented normalized growth of CN(C)CCC(c1ccc(Br)cc1)c1ccccn1 (stereo not drawn)
Solution: 0.977

Problem: Please give the documented normalized growth of CC(=O)Nc1nnc(S(N)(=O)=O)s1
Solution: 0.81

Problem: Please give the documented normalized growth of O=c1cc(-c2cc(O)c(O)c(O)c2)oc2cc(O)cc(O)c12
Solution: 0.96

Problem: Please give the documented normalized growth of CC(CN1c2ccccc2Sc2ccccc21)N(C)C (stereo not drawn)
Solution: 1

Problem: Please give the documented normalized growth of O=c1cc(-c2ccccc2)oc2c(O)c(O)ccc12
Solution: 0.947

Problem: Please give the documented normalized growth of O=c1cc(-c2ccccc2)oc2cc(O)cc(O)c12
Solution: 0.879

Problem: Please give the documented normalized growth of CC(=O)OCC(=O)[C@@]1(O)[C@H](OC(C)=O)CC2C3CCC4=CC(=O)C=C[C@]4(C)[C@@]3(F)[C@@H](O)C[C@@]21C (stereo partly drawn)
Solution: 0.997

Problem: Please give the documented normalized growth of C[C@]12C=CC(=O)C=C1CCC1C3C[C@@H](O)[C@](O)(C(=O)CO)[C@@]3(C)C[C@H](O)[C@@]12F (stereo partly drawn)
Solution: 0.99

Problem: Please give the documented normalized growth of COc1cc2c(cc1O)C(Cc1ccc(O)cc1)N(C)CC2 (stereo not drawn)
Solution: 0.981

Problem: Please give the documented normalized growth of C=C1C2CCC3(C)C(c4ccoc4)OC(=O)CC13OC1CC(OC(C)=O)C(C)(C)C(CC(=O)OC)C12C (stereo not drawn)
Solution: 0.983

Problem: Please give the documented normalized growth of CC(=O)Nc1ccccc1
Solution: 1

Problem: Please give the documented normalized growth of CCN(CC)C(C)CN1c2ccccc2Sc2ccccc21 (stereo not drawn)
Solution: 0.918

Problem: Please give the documented normalized growth of CNCCCN1c2ccccc2CCc2ccccc21
Solution: 0.986

Problem: Please give the documented normalized growth of CC(CN(C)C)CN1c2ccccc2Sc2ccccc21 (stereo not drawn)
Solution: 0.944

Problem: Please give the documented normalized growth of N[C@@H]1[C@@H](O)[C@H](O)[C@@H](CO)O[C@H]1O
Solution: 1.05

---

experiment: chemical genetic growth profiling, strain panel (AID 1159580);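 also: tested at 20 µM; growth read once vehicle control cultures reached saturation at 30 °C; 1 = growth at the plate median or of vehicle wells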; conditions: S. cerevisiae deletion strains, growth OD, locus YDR502C, strain sam2, stronger effect = lower value
The campaign covered roughly 5,500 compounds. About 2,000 (36%) were called active. Roughly 18% stayed inconclusive and do not appear here. The list shows a part of the results.
valueType: normalized growth
Give a plain numeric answer without units written out.

Problem: Please give the documented normalized growth of C[C@H](N)[C@H](O)c1cccc(O)c1
Solution: 1

Problem: Please give the documented normalized growth of C[C@H](CCC(=O)O)[C@H]1CCC2C3C(CC[C@@]21C)[C@@]1(C)CC[C@@H](O)C[C@H]1C[C@@H]3O (some centres undefined)
Solution: 0.984

Problem: Please give the documented normalized growth of N#C/C(=C\c1cccc(O)c1)C(=O)O
Solution: 0.997

Problem: Please give the documented normalized growth of C[C@H](CCC(=O)O)[C@H]1CCC2C3C(CC[C@@]21C)[C@@]1(C)CC[C@@H](O)C[C@H]1C[C@H]3O (some centres undefined)
Solution: 1.04

Problem: Please give the documented normalized growth of C[C@H](N)[C@H](O)c1ccccc1
Solution: 0.994

Problem: Please give the documented normalized growth of COc1cc(OC)c(OC)cc1C=O
Solution: 0.995

Problem: Please give the documented normalized growth of CC(=O)O[C@H]1C[C@@H](OC(C)=O)C(C)(C)C2CC(=O)[C@]3(C)C(CC[C@@]4(C)[C@H](c5ccoc5)OC(=O)[C@H]5O[C@]543)[C@]21C (some centres undefined)
Solution: 1.03

Problem: Please give the documented normalized growth of COc1cc(S(C)=O)ccc1-c1nc2ncccc2[nH]1 (centres undefined)
Solution: 0.984

Problem: Please give the documented normalized growth of COC(=O)CCC(=O)O[C@H]1CCC2(C)C(CCC3C2C(=O)[C@@H](O)C2(C)C3CC3OC4(CCC(C)CO4)[C@@H](C)C32)C1 (some centres undefined)
Solution: 1

---

experiment: chemical genetic growth profiling, strain panel (AID 1159580);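 also: tested at 20 µM; growth read once vehicle control cultures reached saturation at 30 °C; 1 = growth at the plate median or of vehicle wells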; details: S. cerevisiae deletion strains, growth OD, locus YHR030C, strain SLT2
Screen size: about 5,500 compounds; about 2,000 (36%) were called active. Not shown: some 18% with an inconclusive outcome. No stated cut-off is given here; in the data, active means normalized growth mostly below about 0.91 (no sharp cut-off); inconclusive means no clear call, values can overlap the other calls; inactive means mostly above about 0.92. The list shows a part of the results.
The categories you may choose from are active, inactive

Problem: State the result this test recorded for O=C(CSc1nnc(NC(=O)c2cccc([N+](=O)[O-])c2)s1)Nc1ccc2c(c1)OCO2 .
Solution: inactive

Problem: State the result this test recorded for O=c1cc(-c2ccccc2)oc2cc(O)c(O)cc12 .
Solution: inactive

Problem: State the result this test recorded for CC(=O)Nc1ccc(C(F)(F)F)cc1Br .
Solution: inactive

Problem: State the result this test recorded for Cc1c(S(=O)(=O)c2ccc(Cl)cc2)csc1S(=O)(=O)N/N=C\c1c(Cl)cccc1Cl .
Solution: inactive

Problem: State the result this test recorded for N[C@@H](Cc1cc(I)c(Oc2cc(I)c(O)c(I)c2)c(I)c1)C(=O)O .
Solution: inactive

Problem: State the result this test recorded for C/C(=N/Nc1ccccc1)c1cc(Cl)cc(Cl)c1O .
Solution: active

Problem: State the result this test recorded for Cc1onc(-c2ccccc2)c1C(=O)Sc1ccc(C(F)(F)F)cn1 .
Solution: active

Problem: State the result this test recorded for CCC(=O)c1c(C)c(C)c(C)c(C)c1C .
Solution: inactive

Problem: State the result this test recorded for Cc1ccc(OCc2nnc(SCC(=O)Nc3cccc4c3OCO4)n2-c2ccccc2)c2c1CCC2 .
Solution: inactive

Problem: State the result this test recorded for CCC(=O)Nc1ccc(Cl)c(Cl)c1 .
Solution: inactive

Problem: State the result this test recorded for CC(=O)c1ccc(-c2ccc(Cl)c(Cl)c2)o1 .
Solution: active

Problem: State the result this test recorded for O=C(Nc1nncs1)c1ccncc1 .
Solution: inactive

Problem: State the result this test recorded for O=C(Nc1nccs1)c1ccc([N+](=O)[O-])cc1 .
Solution: inactive

Problem: State the result this test recorded for O=C(Nc1ccccc1)Nc1ccc(C(F)(F)F)cc1Br .
Solution: inactive

Problem: State the result this test recorded for Cc1ncc([N+](=O)[O-])n1CC(C)O (stereo not given) .
Solution: inactive
